// data source = patent US20210388087A1

- Tested system: T1, Human CD137 ECD (human)
- T1 construct: entry includes C-terminal His-tag and biotin acceptor peptide; also called human CD137 extracellular domain; 4-1BB
- T1 sequence (chain, as listed by the source limits assumed): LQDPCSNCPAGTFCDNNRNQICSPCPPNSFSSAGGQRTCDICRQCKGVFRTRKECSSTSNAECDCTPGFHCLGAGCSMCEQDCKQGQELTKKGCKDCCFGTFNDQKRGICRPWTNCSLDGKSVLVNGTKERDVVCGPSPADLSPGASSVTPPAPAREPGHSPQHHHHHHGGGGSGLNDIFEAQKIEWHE
- Procedure text: Biacore SPR, vs parent H183/L072
Recorded endpoint: fold change of affinity (fold)
Write the value in fold as a bare number.

// lookup fold change of affinity for H183/L072 VL M27eQ (antibody, name in Kabat numbering, V domains shown, Dual-Ig) VH: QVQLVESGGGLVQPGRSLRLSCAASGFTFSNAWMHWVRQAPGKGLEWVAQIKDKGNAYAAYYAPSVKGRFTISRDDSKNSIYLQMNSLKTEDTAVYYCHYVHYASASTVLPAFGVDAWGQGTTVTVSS VL: DIVMTQSPLSLPVTPGEPASISCQASQELVHQNRNTYLHWYQQKPGQAPRLLIYKVSNRFPGVPDRFSGSGSGTDFTLKISRVEAEDVGVYYCAQGTSVPFTFGQGTKLEIK 1

// lookup fold change of affinity for H183/L072 VL Q24G (antibody, name in Kabat numbering, V domains shown, Dual-Ig) VH: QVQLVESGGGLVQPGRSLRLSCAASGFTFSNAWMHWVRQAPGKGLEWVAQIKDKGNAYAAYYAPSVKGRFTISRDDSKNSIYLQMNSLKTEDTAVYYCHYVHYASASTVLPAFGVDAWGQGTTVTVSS VL: DIVMTQSPLSLPVTPGEPASISCGASQELVHMNRNTYLHWYQQKPGQAPRLLIYKVSNRFPGVPDRFSGSGSGTDFTLKISRVEAEDVGVYYCAQGTSVPFTFGQGTKLEIK 1
